- System: L1210 leukemia ip in BDF1 mice, survival T/C
- assay-remarks: NCI In Vivo Anticancer Drug Screen. Data for tumor model L1210 Leukemia (intraperitoneal) in B6D2F1 (BDF1) mice
- measurement-setup: endpoint: mean survival time; dose: 200.0 mg/kg/injection; schedule: Q01DX009 (ip); vehicle: saline with Tween-80; higher = longer survival
Inconclusive results and toxic doses are left out.
quantity-kind: T/C

# molecule, result
measured = [
    ("Cc1ccc(S(=O)(=O)NC(c2ccccc2)(c2ccccc2)c2ccccc2)cc1", "88 % of control"),
    ("O=C(NCc1ccccc1)c1ccccc1/C(=N/O)c1ccccc1", "86 % of control"),
    ("O=C1/C(=C/c2ccccc2)Cc2ccccc21", "95 % of control"),
    ("O=C(O)CCCc1ccc([N+](=O)[O-])cc1Cl", "105 % of control"),
    ("C=CCC(CO)(c1ccccc1)c1ccccc1", "97 % of control"),
    ("CCOCC(=O)Cc1ccccc1", "92 % of control"),
    ("CN1CCCN(C)CC1", "91 % of control"),
    ("CCCCCCOC(CN(C)C)C(Cl)(Cl)Cl (stereo not drawn)", "98 % of control"),
    ("CCOC(=O)Cc1ccccc1", "104 % of control"),
    ("O=C1C=CC(=Nc2ccc(Cl)cc2)O1", "102 % of control"),
    ("O=C(Nc1ccc([N+](=O)[O-])cc1Cl)N(CCO)C1CCCCC1", "106 % of control"),
    ("CS(=O)(=O)OCC(OS(C)(=O)=O)C(COS(C)(=O)=O)OS(C)(=O)=O (stereo not drawn)", "100 % of control"),
    ("O=C(Nc1cccc(Cl)c1)Nc1ccccc1Cl", "97 % of control"),
]
